Biological target: T1, RFS1 E138A (Walker B);RIP1 (cShu subunit);SWS1 (cShu subunit) (Caenorhabditis elegans;Caenorhabditis …, UniProt P34348;Q21621;Q8MYM5 1-245;1-209;1-191, E138A||)
T1 sequence 1: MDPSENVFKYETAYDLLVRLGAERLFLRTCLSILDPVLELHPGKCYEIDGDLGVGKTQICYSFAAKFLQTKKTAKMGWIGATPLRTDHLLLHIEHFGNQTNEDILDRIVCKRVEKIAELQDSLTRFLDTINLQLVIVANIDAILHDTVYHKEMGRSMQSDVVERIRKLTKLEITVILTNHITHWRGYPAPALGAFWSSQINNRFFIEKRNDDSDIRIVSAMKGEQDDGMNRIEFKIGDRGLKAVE
T1 sequence 2: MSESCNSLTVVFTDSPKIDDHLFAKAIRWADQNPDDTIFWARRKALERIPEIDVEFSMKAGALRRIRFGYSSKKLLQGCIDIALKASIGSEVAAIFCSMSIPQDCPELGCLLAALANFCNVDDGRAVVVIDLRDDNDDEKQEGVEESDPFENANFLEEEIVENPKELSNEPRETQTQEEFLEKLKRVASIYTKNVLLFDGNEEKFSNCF
T1 sequence 3: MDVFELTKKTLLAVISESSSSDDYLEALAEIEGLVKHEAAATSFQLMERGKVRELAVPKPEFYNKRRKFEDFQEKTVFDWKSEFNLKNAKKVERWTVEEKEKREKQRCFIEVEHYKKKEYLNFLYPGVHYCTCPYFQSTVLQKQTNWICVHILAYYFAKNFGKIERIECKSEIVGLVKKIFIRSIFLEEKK
Assay: fluorescence polarization
Measured quantity: Kd (nM)
All answers are understood in nM, so give the number only.

Previously resolved entries follow.
Fork (20 nt) (mixed) DNA 1: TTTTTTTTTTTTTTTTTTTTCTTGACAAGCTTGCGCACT DNA 2: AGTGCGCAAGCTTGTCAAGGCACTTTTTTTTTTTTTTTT :: 1900
5'-overhang (20 nt) (mixed) DNA 1: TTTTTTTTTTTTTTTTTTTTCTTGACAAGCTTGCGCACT DNA 2: AGTGCGCAAGCTTGTCAAG :: 3900

Now look at this one.
Find the recorded Kd belonging to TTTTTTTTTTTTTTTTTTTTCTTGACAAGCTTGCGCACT (ssDNA) [ss39] and report it. 2700
